Values were extracted from PubChem BioAssay (Tox21).

- experimentalSystem: Aryl hydrocarbon receptor (Homo sapiens)
- testDescription: qHTS assay to identify small molecule that activate the aryl hydrocarbon receptor (AhR) signaling pathway (AID 743085); also: nearly all actives have a fitted effect of over 15% in size;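 as to activation: HG2L7.5c1 human HepG2 liver cells with stably integrated DRE-driven firefly reporter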
- assayContext: HepG2 AhR-luc (HG2L7.5c1), luciferase, 24 h; series mostly up to 70.3 µM
- Text: U.S. Tox21 Program National Center for Advancing Translational Sciences [NCATS] NIH Chemical Genomics Center [NCGC] U.S. Environmental Protection Agency [EPA] National Institutes of Environmental Health Sciences [NIEHS] National Toxicology Program [NTP] U.S. Food and Drug Administration [FDA] Tox21 Assay overview: The Aryl hydrocarbon Receptor (AhR), a member of the family of basic helix-loop-helix transcription factors, is crucial to adaptive responses to environmental changes. […]
Results filed as inconclusive are left out. Active and inactive are the calls of the source. Calls follow the shape of the dose curve; as a rule, active = well fitted activation curve with a large enough effect in the repeat runs; inconclusive = weak or mixed curves; inactive = no such curve, though single readings can be large or run the other way.
Entry note: the call must match one of TRUE (active), FALSE (inactive)

Q. I would be grateful if you could indicate the recorded call for COC(OC)(C(=O)c1ccccc1)c1ccccc1 .
A. FALSE

Q. Dear colleague, could you share the recorded outcome for CC(C)C(OC(=O)c1ccccc1)C(C)(C)COC(=O)c1ccccc1 (stereo unspecified) when you have a moment?
A. FALSE

Q. # fetch the recorded call for CO[C@H]1C=CO[C@@]2(C)Oc3c(C)c(O)c4c(O)c(c5c(c4c3C2=O)=NC2(CCN(CC(C)C)CC2)N=5)NC(=O)/C(C)=C\C=C/[C@H](C)[C@H](O)[C@@H](C)[C@@H](O)[C@@H](C)[C@H](OC(C)=O)[C@@H]1C here
A. FALSE

Q. GET /call?item= CC1C2CC(CC2C2CCCC(O)C2)C1(C)C (stereo unspecified) returns the recorded outcome of this test.
A. FALSE

Q. Just curious, what result did CCCCC(=O)O[C@]1(C(=O)CO)CC[C@H]2[C@@H]3CCC4=CC(=O)CC[C@]4(C)[C@H]3[C@@H](O)C[C@@]21C get here?
A. FALSE

Q. For this compound, state the assay outcome: O=C(O)c1snc(Cl)c1Cl
A. TRUE

Q. Assay outcome for CCOC(=N)CC(=O)OCC : what was it?
A. FALSE

Q. Look up the recorded call for CC(C)CCCC(=O)O in this test.
A. FALSE

Q. Just curious, what result did Oc1ccc(Nc2ccccc2)cc1 get here?
A. FALSE

Q. Please share the test call associated with C[Si]1(C)O[Si](C)(C)O[Si](C)(C)O1 .
A. FALSE

Q. What was the test verdict on CCOc1cc(N)c(Cl)cc1C(=O)NCC1CN(Cc2ccc(F)cc2)CCO1 (stereo unspecified) ?
A. TRUE

Q. Tell me the recorded outcome of this test for CC(C)CCCCCCOC(=O)CCCCC(=O)OCCCCCCC(C)C .
A. FALSE

Q. Recorded call for CCCCCCCCCCCC(=O)[O][Sn]([CH2]CCC)([CH2]CCC)[O]C(=O)CCCCCCCCCCC ?
A. FALSE

Q. In this assay, the call recorded for Cc1nccn1-c1ccc(Sc2cccc(C3(C(N)=O)CCOCC3)c2)cc1 was what?
A. FALSE

Q. Query: recorded result category for CCOC(=O)c1ccccc1OC in this test
A. FALSE

Q. # fetch the recorded call for N#C/C(=C1\SCC(c2ccccc2Cl)S1)n1ccnc1 (stereo unspecified) here
A. TRUE

Q. Outcome logged for Cc1cc2nc3ccc(=[N+](C)C)cc-3sc2cc1N in this assay:
A. TRUE

Q. Would you mind telling me which call this test gave CCCC1C(CC)=CC(CC)=CN1c1ccccc1 (stereo unspecified) ?
A. FALSE

Q. Status in this test for O=C(O)c1cccc(O)c1 ?
A. FALSE

Q. Recorded call for C1COCO1 ?
A. FALSE

Q. Record request — test call for COCc1c(C(C)C)nc(C(C)C)c(/C=C/[C@@H](O)C[C@@H](O)CC(=O)O)c1-c1ccc(F)cc1
A. FALSE

Q. Can you look up the reported call for CCCCCCCCCCCC[N+](C)(C)CCCS(=O)(=O)[O-] for me?
A. FALSE

Q. Check the results log: what was the call for CC1(C)C2=CCCC(C)(C)[C@]23CC[C@H]1C3 ?
A. FALSE

Q. So what was the verdict on CCOC(=O)[C@@H](C)Oc1ccc(Oc2nc3ccc(Cl)cc3o2)cc1 in this test?
A. FALSE

Q. For CC(C)c1nnc2ccc(-c3ocnc3-c3cc(F)ccc3F)cn12 , what call appears in the results of this test?
A. FALSE

Q. Called result for CC1=C(/C=C/C(C)=C\C=C\C(C)=C\C(=O)O)C(C)(C)CCC1
A. FALSE
